# methodDescription: Acute toxicity test in vivo in mice (Example 21)
# details: ICR, mouse, in vivo, 1.6 g/kg
metricName: LD50 at 14 days

q: Can you share its LD50 at 14 days? I mean this compound: OC(Cn1cncn1)(Cn1cncn1)c1ccc(F)cc1F [Fluoroconazole, reference compound]
a: ~1600 mg/kg
